- System: promastigote forms of L. amazonensis
- EXPERIMENTAL PROTOCOL: Leishmanicidal activity against promastigote forms of L. amazonensis (resazurin)
- Format: cell-based, Leishmania amazonensis
- CONDITION SUMMARY: Leishmania amazonensis, L. amazonensis promastigotes, 72 h, read-out: IC50 ± SD promastigote
QUANTITY KIND: pIC50
Bear in mind: pIC50 is minus log10 of a mol/L concentration; give just that figure.

Please look up its pIC50: `Cc1ccc(-c2cn(CC(O)Cn3cc(-c4ccc(C)cc4)nn3)nn2)cc1`
3.94

Proceed to `O=C(c1ccccc1)c1cn(CC(O)Cn2cc(C(=O)c3ccccc3)nn2)nn1`
4.36

Proceed to `O=[N+]([O-])c1ccc(-c2cn(CC(O)Cn3cc(-c4ccc([N+](=O)[O-])cc4)nn3)nn2)cc1`
4.32

Proceed to C[C@@H]1[C@H](O)[C@@H](C)/C=C/C=C/C=C/C=C/C=C/C=C/C=C/[C@H](O[C@@H]2O[C@H](C)[C@@H](O)[C@H](N)[C@@H]2O)C[C@@H]2O[C@](O)(C[C@@H](O)C[C@@H](O)[C@H](O)CC[C@@H](O)C[C@@H](O)CC(=O)O[C@H]1C)C[C@H](O)[C@H]2C(=O)O [amph B, amphotericin B, reference compound]
5.85

Proceed to OC(Cn1cc(C(=NNc2nc3ccccc3s2)c2ccccc2)nn1)Cn1cc(C(=NNc2nc3ccccc3s2)c2ccccc2)nn1 (stereo not shown) [12c]
4.72

Proceed to OC(c1ccccc1)c1cn(Cc2ccccc2)nn1 (stereo not shown)
4.37

Proceed to OC(Cn1cc(C(O)c2ccccc2)nn1)Cn1cc(C(O)c2ccccc2)nn1 (stereo not shown)
4.21

Reference source for all entries: paper PMC12242654
